- System name: DYRK1A kinase (Homo sapiens (Human), UniProt Q13627)
- Procedure text: DYRK1A kinase assay (Ser/Thr 18 peptide Z-lyte FRET)
- Format: biochemical
- Run conditions: read-out: EC50 (method: IC50)
pIC50: −log10 of the molar value.
pIC50 of 8 or higher: condition met. Under 8: condition not met.

## Task Does the reported pIC50 for CN1CCC(Oc2ccc(NC(=O)c3n[nH]c4cc(F)c(-c5cnn(C(F)F)c5)cc34)cc2)CC1 fall at or above the 8 mark?
## Result condition not met

## Task Now consider CN1CCC(Oc2ccc(NC(=O)c3n[nH]c4cc(F)c(-c5cnn(C)c5)cc34)cn2)CC1 and answer again.
## Result condition met

## Task Entry to check: O=C(Nc1ccc(OC(F)F)cc1)c1n[nH]c2cc(F)c(-c3cnn(C4CCNCC4)c3)cc12
## Result condition not met

## Task Query O=C(Nc1ccc(F)cc1)c1n[nH]c2ccc(-c3cnn(C4CNC4)c3)cc12 next
## Result condition not met

## Task Next molecule up: Cn1cc(-c2ccc3[nH]nc(C(=O)NC45CC6CC(CC(C6)C4)C5)c3c2)cn1
## Result condition not met

More entries:
## Task Could you tell me if the measured pIC50 of O=C(Nc1ccc(OC(F)F)cc1)c1n[nH]c2ccc(-c3cnn(C4CNC4)c3)cc12 reaches 8 or more?
## Result condition not met

## Task # repeat for Cn1cc(-c2cc3c(C(=O)Nc4cccc(OCCN5CCCC5)c4)n[nH]c3cc2F)cn1
## Result condition met

## Task Moving on to the next molecule: CCn1cc(-c2ccc3[nH]nc(C(=O)NC4CCN(CC(C)(C)F)CC4)c3c2)cn1
## Result condition not met

## Task Now the molecule Cn1cc(-c2ccc3[nH]nc(C(=O)NCCC(F)(F)F)c3c2)cn1
## Result condition not met

## Task Another molecule to look at: CC(C)CNC(=O)c1n[nH]c2ccc(-c3cnn(C)c3)cc12
## Result condition not met

## Task Consider next the molecule Cn1cc(-c2ccc3[nH]nc(C(=O)N[C@@H]4CCCC[C@H]4F)c3c2)cn1 in the same way.
## Result condition not met

## Task Try this molecule next: Cc1ncc(NC(=O)c2n[nH]c3cc(F)c(-c4cnn(C5CCN(C)CC5)c4)cc23)s1
## Result condition met

----------
- System name: GSK3β kinase (Homo sapiens (Human), UniProt P49841)
- Sequence (P49841 whole entry): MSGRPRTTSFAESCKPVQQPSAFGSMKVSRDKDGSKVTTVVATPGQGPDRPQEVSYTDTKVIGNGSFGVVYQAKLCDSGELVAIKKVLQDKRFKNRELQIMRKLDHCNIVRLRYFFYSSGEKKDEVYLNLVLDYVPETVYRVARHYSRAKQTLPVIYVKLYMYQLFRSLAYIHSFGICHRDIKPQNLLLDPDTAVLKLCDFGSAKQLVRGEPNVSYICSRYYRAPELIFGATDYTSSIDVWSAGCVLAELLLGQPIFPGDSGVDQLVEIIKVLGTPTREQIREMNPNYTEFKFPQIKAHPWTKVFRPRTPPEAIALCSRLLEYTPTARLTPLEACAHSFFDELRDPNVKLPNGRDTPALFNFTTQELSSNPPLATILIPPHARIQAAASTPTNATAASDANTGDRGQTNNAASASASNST
- Procedure text: GSK3β kinase assay (Ser/Thr 09 peptide Z-lyte FRET)
- Assay type: biochemical
- Run conditions: read-out: EC50 (method: IC50)
This listing pairs molecules with measured IC50.
Express the result in nM but write the number alone.

// known answers, use as guide
## Task For O=C(Nc1ccc(OC(F)F)nc1)c1n[nH]c2ccc(-c3cnn(C4CNC4)c3)cc12 , what is its reported IC50?
## Result 354

## Task Okay, and Cn1cc(-c2ccc3[nH]nc(C(=O)NCC4CCC(F)(F)CC4)c3c2)cn1 ?
## Result 22

## Task Entry Cn1cc(-c2cc3c(C(=O)Nc4ccc5c(c4)CNC5)n[nH]c3cc2F)cn1 please
## Result 21

--- query ---
## Task For the molecule Cn1cc(-c2cc3c(C(=O)Nc4cccc(OCCN5CCCC5)c4)n[nH]c3cc2F)cn1 , what IC50 is on record?
## Result 20

----------
- System name: DYRK1A kinase (Homo sapiens (Human), UniProt Q13627)
- Procedure text: DYRK1A kinase assay (Ser/Thr 18 peptide Z-lyte FRET)
- Assay type: biochemical
- Run conditions: read-out: EC50 (method: IC50)
Entries and their pIC50
Friendly reminder that pIC50 comes from taking -log10 of the concentration in mol/L.

These recorded examples may help you get a feel for the data.
## Task For DYRK1A kinase (Homo sapiens (Human), UniProt Q13627), provide pIC50 of Cn1cc(-c2cc3c(C(=O)Nc4ccc(CN5CC(F)C5)cc4)n[nH]c3cc2F)cn1 [Compound 67] please.
## Result 8.05

## Task Same question for CN1CCC(n2cc(-c3cc4c(C(=O)Nc5cncc(F)c5)n[nH]c4cc3F)cn2)CC1 [Compound 126] please.
## Result 8.05

## Task # iterate: CN1CCC(n2cc(-c3cc4c(C(=O)Nc5ccc(F)cc5)n[nH]c4cc3F)cn2)CC1 [Compound 51]
## Result 7.80

## Task Now give it for O=C(Nc1ccc(OC(F)F)cc1)c1n[nH]c2ccc(-c3cnc4n3CCNC4)cc12 [Compound 64] too.
## Result 7.80

## Task Then this compound: C[C@H]1C[C@H](NC(=O)c2n[nH]c3ccc(-c4cnn(C)c4)cc23)CCN1CC(C)(C)F [Compound 44]
## Result 8.15

---
## Task // lookup pIC50 | system=DYRK1A kinase (Homo sapiens (Human), UniProt Q13627) | key= Cn1cc(-c2cc3c(C(=O)Nc4cccc(OC5CCNCC5)c4)n[nH]c3cc2F)cn1 [Compound 150]
## Result 8.40

## Task Queued: Cn1cc(-c2cc(F)c3[nH]nc(C(=O)Nc4ccc(CN5CCCC5)cc4)c3c2)cn1 [Compound 119]
## Result 7.68

## Task And O=C(Nc1ccc(OC(F)F)cc1)c1n[nH]c2ccc(-c3cnn(CC4CCNCC4)c3)cc12 [Compound 63] ?
## Result 6.12

## Task Please do the same for O=C(Nc1ccc(F)cc1)c1n[nH]c2ccc(-c3cnc4n3CCNC4)cc12 [Compound 52] as well.
## Result 7.96
